- TARGET DESC: T1, rhIL-21-His (AB235875-1001, Abcam) (human, UniProt Q9HBE4 30-162)
- T1 construct: bought; not shown: His tag, length and position not described
- T1 sequence (Q9HBE4 30-162 limits assumed): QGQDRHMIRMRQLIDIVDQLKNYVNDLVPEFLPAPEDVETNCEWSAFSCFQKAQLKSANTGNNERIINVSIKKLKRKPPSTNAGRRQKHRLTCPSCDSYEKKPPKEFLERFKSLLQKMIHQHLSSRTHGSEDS
- METHOD SUMMARY: SPR, Fab on captured rhIL-21-His
Doc: threshold 0.7 nM (exclusive). Items with Kd beneath it return class 1; others return class 0.

State whether 0.7 nM exceeds Kd recorded for PAI969 Fab (Fab, V domains shown, Fab) VH: QVQLQESGPGLVKPSETLSLTCTVSGGSISSDYWGWIRQPPGKGLEWIGYISSSGSTNYNPSLKSRVTISVDTSRNQFSLKLSSVTAADTAVYYCARSAGVADFDAWGQGTLVTVSS VL: DIQLTQSPSSVSASVGDRVTITCRASQGISSWLAWYQHKPGKAPKLLIYVASSLQSGVPSRFSGSGSGTDFTLTISSLQPEDFATYYCQQASSFPLTFGGGTKVEIK .
class 0

Please determine if ZXI489 Fab (Fab, V domains shown, Fab) VH: QVQLQESGPGLVKPSETLSLTCTVSGGSISSDYWGWIRQPPGKGLEWIGYISYRGSTNYNPSLKSRVTISVDTSRNQFSLKLSSVTAADTAVYYCARSAGVTDFDWWGQGTLVTVSS VL: DIQLTQSPSSVSASVGDRVTITCRASQGISSWLAWYQHKPGKAPKLLIYVASSLQSGVPSRFSGSGSGTDFTLTISSLQPEDFATYYCQQASSAPLTFGGGTKVEIK is below 0.7 nM in terms of Kd.
class 0

Does the reported Kd of the following binder sit strictly below 0.7 nM? OWS965 Fab (Fab, V domains shown, Fab) VH: QVQLQESGPGLVKPSETLSLTCTVSGGSISSDYWGWIRQPPGKGLEWIGYISYSGSTNYNPSLKSRVTISVDTSRNQFSLKLSSVTAADTAVYYCARSAGVADFDAWGQGTLVTVSS VL: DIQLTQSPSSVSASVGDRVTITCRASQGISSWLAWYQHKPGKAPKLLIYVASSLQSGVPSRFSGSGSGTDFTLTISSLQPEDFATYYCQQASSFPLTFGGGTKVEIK
class 0

Does the reported Kd of the following binder sit strictly below 0.7 nM? JSQ278 Fab (Fab, V domains shown, Fab) VH: QVQLQESGPGLVKPSETLSLTCTVSGGSISSDYWGWIRQPPGKGLEWIGYISYRGSTNYNPSLKSRVTISVDTSRNQFSLKLSSVTAADTAVYYCARSAGVTDFDAWGQGTLVTVSS VL: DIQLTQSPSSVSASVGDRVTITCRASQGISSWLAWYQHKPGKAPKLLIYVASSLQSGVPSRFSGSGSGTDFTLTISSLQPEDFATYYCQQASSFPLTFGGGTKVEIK
class 1
